Target: Protein kinase C alpha type (Homo sapiens); further: in other assays of this panel Not Active means under 50% inhibition at 10 µM;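 further: inhibition of PKCalpha kinase activity measured in an enzyme assay with histone as the phosphorylation substrate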
Type: cell-based
Conditions: sf9
observable: IC50

Some molecules with recorded IC50:
molecule	study_target	observable	result
CC(=O)OCC(=O)[C@@]1(OC(C)=O)[C@@H](C)C[C@H]2[C@@H]3C[C@H](F)C4=CC(=O)C=C[C@]4(C)[C@@]3(F)[C@@H](O)C[C@@]21C [DIFLORASONE DIACETATE]	Protein kinase C alpha type (Homo sapiens)	IC50	Not Active
c1ccc2c(c1)cc1ccc3cccc4ccc2c1c34	Protein kinase C alpha type (Homo sapiens)	IC50	Not Active
CN1CCC[C@H]1c1cccnc1	Protein kinase C alpha type (Homo sapiens)	IC50	Not Active
CC(C)(C)NCC(O)c1cc(O)cc(O)c1 (centres undefined)	Protein kinase C alpha type (Homo sapiens)	IC50	Not Active
CN(C)CCCN1c2ccccc2CCc2ccc(Cl)cc21	Protein kinase C alpha type (Homo sapiens)	IC50	Not Active

Using known records, supply IC50 for CCCCCCCCCc1ccc(O)cc1
Not Active

Indicate its recorded IC50; the molecule in question is COC1=CC(=O)C[C@@H](C)[C@]12Oc1c(Cl)c(OC)cc(OC)c1C2=O
Not Active

Given the molecule O=C1OC2(c3ccc(O)cc3Oc3cc(O)ccc32)c2ccccc21 , write its reported IC50.
Not Active

Indicate the recorded IC50 value for this molecule: Nc1nc(=O)[nH]cc1F
Not Active

* * *

Target: Adenosine receptor A3 (Homo sapiens, UniProt P0DMS8); further: in other assays of this panel Not Active means under 50% inhibition at 10 µM;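 further: radioligand binding assay with AB-MECA serving as the labeled ligand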
Sequence (P0DMS8 whole entry): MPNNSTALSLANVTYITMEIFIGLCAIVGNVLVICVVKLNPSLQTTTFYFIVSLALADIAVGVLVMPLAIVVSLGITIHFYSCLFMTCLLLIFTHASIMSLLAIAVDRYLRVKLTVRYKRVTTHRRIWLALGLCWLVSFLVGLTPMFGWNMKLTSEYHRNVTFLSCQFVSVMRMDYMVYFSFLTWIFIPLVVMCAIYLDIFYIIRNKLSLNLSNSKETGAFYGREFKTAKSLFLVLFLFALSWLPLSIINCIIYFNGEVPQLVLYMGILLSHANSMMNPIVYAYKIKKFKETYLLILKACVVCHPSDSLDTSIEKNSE
Type: cell membranes, CHO-K1, Membrane
Details: cho-k1; read-out: Ki
I'd be grateful if you could share measured Ki for these entries.
Express your answer in nM, writing the number without its unit.

Given IVERMECTIN , respond with its Ki.
289

Give Ki for GOLD SODIUM THIOMALATE
843

Fill in reported Ki for this entry: CISPLATIN
2400

* * *

Target: Nitric oxide synthase, inducible (Mus musculus, UniProt P29477); further: in other assays of this panel Not Active means under 50% inhibition at 10 µM;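 further: inhibition of iNOS enzyme activity measured with L-arginine as substrate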
Sequence (P29477 whole entry): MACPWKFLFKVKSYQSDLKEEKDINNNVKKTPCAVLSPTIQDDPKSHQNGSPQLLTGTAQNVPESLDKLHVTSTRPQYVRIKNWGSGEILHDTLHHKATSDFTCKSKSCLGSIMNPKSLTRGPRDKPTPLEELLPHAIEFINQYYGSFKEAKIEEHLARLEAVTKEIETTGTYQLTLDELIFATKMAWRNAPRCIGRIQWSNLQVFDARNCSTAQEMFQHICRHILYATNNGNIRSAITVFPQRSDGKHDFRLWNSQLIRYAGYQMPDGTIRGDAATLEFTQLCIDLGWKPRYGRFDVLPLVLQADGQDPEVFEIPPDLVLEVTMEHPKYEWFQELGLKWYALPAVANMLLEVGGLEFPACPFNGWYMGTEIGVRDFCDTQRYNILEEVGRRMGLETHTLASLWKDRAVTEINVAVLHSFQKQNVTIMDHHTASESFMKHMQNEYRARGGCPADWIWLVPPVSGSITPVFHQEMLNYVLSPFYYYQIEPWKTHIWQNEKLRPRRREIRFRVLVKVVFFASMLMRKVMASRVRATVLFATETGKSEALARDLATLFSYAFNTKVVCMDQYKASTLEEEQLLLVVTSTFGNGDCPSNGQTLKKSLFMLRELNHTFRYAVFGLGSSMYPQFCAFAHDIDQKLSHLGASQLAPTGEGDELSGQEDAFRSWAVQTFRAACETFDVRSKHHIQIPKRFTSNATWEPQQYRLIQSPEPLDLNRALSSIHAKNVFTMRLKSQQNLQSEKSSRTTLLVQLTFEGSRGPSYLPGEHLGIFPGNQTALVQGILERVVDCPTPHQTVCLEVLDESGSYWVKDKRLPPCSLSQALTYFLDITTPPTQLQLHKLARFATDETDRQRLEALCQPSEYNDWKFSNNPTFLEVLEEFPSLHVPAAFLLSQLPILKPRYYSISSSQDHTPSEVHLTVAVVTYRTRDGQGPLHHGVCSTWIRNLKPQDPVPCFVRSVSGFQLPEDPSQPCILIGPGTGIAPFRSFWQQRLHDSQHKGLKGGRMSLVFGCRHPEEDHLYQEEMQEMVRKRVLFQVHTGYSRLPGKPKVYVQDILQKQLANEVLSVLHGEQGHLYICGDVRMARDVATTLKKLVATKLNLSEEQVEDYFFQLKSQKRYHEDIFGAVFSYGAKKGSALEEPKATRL
Set-up: species or system Escherichia coli
observable: IC50

The examples below pair each entry with its known result.
>>> print(df.to_string())
                substance      result
0               CISPLATIN  Not Active
1             CARBOPLATIN  Not Active
2             OXALIPLATIN  Not Active
3  GOLD SODIUM THIOMALATE  Not Active

Return reported IC50. Input substance: IVERMECTIN
Not Active

* * *

Target: Sodium-dependent dopamine transporter (Homo sapiens)
Sequence (Q01959 whole entry): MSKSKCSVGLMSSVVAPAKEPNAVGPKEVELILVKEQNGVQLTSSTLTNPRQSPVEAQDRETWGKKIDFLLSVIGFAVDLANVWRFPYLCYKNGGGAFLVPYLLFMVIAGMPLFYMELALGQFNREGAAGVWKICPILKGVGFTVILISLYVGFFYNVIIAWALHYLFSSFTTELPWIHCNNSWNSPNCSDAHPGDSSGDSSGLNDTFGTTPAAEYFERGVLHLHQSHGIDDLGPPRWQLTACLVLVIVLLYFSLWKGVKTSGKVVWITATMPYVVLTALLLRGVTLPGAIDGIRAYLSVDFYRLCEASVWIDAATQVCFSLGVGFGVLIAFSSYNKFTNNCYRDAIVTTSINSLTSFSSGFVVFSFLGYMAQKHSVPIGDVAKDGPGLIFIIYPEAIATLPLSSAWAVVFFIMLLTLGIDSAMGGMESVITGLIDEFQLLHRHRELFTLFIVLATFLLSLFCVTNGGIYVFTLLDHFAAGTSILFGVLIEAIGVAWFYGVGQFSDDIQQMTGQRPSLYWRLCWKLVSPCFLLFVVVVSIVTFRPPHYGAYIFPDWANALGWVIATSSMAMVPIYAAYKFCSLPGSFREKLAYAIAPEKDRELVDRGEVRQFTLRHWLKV
Test: DRUGMATRIX: Dopamine Transporter radioligand binding (ligand: [125I] RTI-55)
Format: cell membranes, CHO-K1, Membrane
Conditions: cho-k1; Not Active = under 50% inhibition at 10 µM; read-out: IC50
observable: IC50

Please supply the value of reported IC50 for the item IVERMECTIN
4.46 µM

* * *

Assay: DRUGMATRIX: Phosphodiesterase PDE3 enzyme inhibition (substrate: [3H]cAMP + cAMP)
Format: tissue-based, Homo sapiens
Settings: platelet; Not Active = under 50% inhibition at 10 µM
observable: IC50

smiles_entry	observable	result
c1ccc2[nH]c(-c3cscn3)nc2c1	IC50	Not Active
O=[N+]([O-])c1cc([As](=O)(O)O)ccc1O	IC50	Not Active
Nc1nc2c(ncn2COC(CO)CO)c(=O)[nH]1	IC50	Not Active
CC1(C)[C@@H](O[C@H]2O[C@H](C(=O)O)[C@@H](O)[C@H](O)[C@H]2O[C@@H]2O[C@H](C(=O)O)[C@@H](O)[C@H](O)[C@H]2O)CC[C@]2(C)[C@H]3C(=O)C=C4[C@@H]5C[C@@](C)(C(=O)O)CC[C@]5(C)CC[C@@]4(C)[C@]3(C)CC[C@@H]12	IC50	Not Active

State its IC50: CC(C)[C@H](N)C(=O)OCCOCn1cnc2c(=O)nc(N)[nH]c21
Not Active

Specify reported IC50 for the compound shown: CC(=O)S[C@@H]1CC2=CC(=O)CC[C@]2(C)[C@H]2CC[C@@]3(C)[C@@H](CC[C@@]34CCC(=O)O4)[C@H]12
Not Active

Supply IC50 value. Item: O=C(O)c1cn(C2CC2)c2cc(N3CCNCC3)c(F)cc2c1=O
Not Active

* * *

For UniProtKB P25024, measured IC50 is reported for the entries below.
Sequence (P25024 whole entry): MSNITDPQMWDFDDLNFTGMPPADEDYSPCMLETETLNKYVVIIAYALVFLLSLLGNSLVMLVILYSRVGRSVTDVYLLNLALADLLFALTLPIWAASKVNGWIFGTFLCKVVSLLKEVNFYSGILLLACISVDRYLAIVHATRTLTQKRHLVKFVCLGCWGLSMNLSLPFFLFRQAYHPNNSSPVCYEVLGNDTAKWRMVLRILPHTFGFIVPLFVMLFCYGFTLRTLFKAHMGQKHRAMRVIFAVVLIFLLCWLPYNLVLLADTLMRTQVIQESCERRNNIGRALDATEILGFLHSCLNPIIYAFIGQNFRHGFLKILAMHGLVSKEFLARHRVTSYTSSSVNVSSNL

Below, 5 molecules whose answers are already recorded.
molecule	result
C=C1CC[C@H](O)C/C1=C/C=C1\CCC[C@]2(C)[C@@H]([C@H](C)/C=C/[C@H](C)C(C)C)CC[C@@H]12 [ERGOCALCIFEROL]	Not Active
O=C1CN=C(c2ccccc2)c2cc([N+](=O)[O-])ccc2N1 [NITRAZEPAM]	Not Active
O=c1cc(-c2ccccc2)oc2c1ccc1ccccc12 [ALPHA-NAPHTHOFLAVONE]	Not Active
CCOC(=O)c1ccc(N)cc1 [BENZOCAINE]	Not Active
CC(=O)OCC(=O)[C@@]1(OC(C)=O)[C@@H](C)C[C@H]2[C@@H]3C[C@H](F)C4=CC(=O)C=C[C@]4(C)[C@@]3(F)[C@@H](O)C[C@@]21C [DIFLORASONE DIACETATE]	Not Active

Give IC50 for COC1=CC(=O)C[C@@H](C)[C@]12Oc1c(Cl)c(OC)cc(OC)c1C2=O [GRISEOFULVIN] tested on UniProtKB P25024.
Not Active

// fetch IC50 for NC(CO)(CO)CO [TROMETHAMINE] ; system: UniProtKB P25024
Not Active

Give UniProtKB P25024 IC50 for the following molecule: Clc1ccc(C(c2ccccc2Cl)C(Cl)Cl)cc1 (centres undefined) [MITOTANE]
Not Active

Report value only: IC50, UniProtKB P25024, Nc1ccc(S(N)(=O)=O)cc1 [SULFANILAMIDE]
Not Active

* * *

Biological target: Endothelin-1 receptor (Homo sapiens); further: in other assays of this panel Not Active means under 50% inhibition at 10 µM
Sequence (P25101 whole entry): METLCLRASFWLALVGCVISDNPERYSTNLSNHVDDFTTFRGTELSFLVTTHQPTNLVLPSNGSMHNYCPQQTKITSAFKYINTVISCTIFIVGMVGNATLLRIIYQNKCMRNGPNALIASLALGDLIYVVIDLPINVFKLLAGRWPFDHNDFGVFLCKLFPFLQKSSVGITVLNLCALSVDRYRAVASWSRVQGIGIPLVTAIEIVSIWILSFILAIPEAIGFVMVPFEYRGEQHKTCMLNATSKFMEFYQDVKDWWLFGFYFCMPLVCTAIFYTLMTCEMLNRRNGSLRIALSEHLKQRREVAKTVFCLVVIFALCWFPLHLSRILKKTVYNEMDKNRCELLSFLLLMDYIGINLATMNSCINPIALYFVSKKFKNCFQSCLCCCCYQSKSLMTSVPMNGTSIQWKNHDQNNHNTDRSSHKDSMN
Type: cell membranes, Membrane
Conditions: cho-k1
observable: IC50

>>> print(df.to_string())
                                   molecule      result
0                       CCOC(=O)c1ccc(N)cc1  Not Active
1  O=P1(NCCCl)OCCCN1CCCl (stereo not given) [IFOSFAMIDE]  Not Active
2  CC(C)(C)NCC(O)c1cc(O)cc(O)c1 (stereo not given)  Not Active
3            NC(=O)c1ccccc1O [SALICYLAMIDE]  Not Active
4  CC(C)(O)c1ccccc1CC[C@@H](SCC1(CC(=O)O)CC1)c1cccc(/C=C/c2ccc3ccc(Cl)cc3n2)c1  Not Active

Please give measured IC50 of the following entry: Cc1[nH]cnc1CN1CCc2c(c3ccccc3n2C)C1=O
Not Active

Please supply the value of reported IC50 for the item O=C1OC2(c3ccc(O)cc3Oc3cc(O)ccc32)c2ccccc21
Not Active

* * *

Target: D(4) dopamine receptor (Homo sapiens, UniProt P21917)
Sequence (P21917 whole entry): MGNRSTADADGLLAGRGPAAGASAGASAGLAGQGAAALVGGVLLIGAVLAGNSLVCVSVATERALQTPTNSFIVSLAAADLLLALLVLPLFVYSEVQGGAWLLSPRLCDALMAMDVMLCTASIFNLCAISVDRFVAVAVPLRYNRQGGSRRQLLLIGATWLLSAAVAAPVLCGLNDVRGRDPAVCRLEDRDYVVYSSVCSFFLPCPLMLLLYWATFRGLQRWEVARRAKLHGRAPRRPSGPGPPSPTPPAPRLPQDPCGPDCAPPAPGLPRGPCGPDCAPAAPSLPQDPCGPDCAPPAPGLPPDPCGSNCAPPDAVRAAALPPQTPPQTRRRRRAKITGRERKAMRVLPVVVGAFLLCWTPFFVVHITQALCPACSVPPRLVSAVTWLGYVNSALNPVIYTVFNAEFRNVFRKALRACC
Experiment: DRUGMATRIX: Dopamine D4.2 radioligand binding (ligand: [3H] Spiperone)
Format: cell membranes, CHO-K1, Membrane
Settings: Not Active = under 50% inhibition at 10 µM; read-out: Ki
observable: pKi
// pKi is dimensionless: -log10 of concentration (M)

Note pKi for the molecule shown: CSc1ccc2c(c1)N(CCC1CCCCN1C)c1ccccc1S2 (configuration not stated)
6.29

Look up pKi of Clc1ccccc1C(c1ccccc1)(c1ccccc1)n1ccnc1 and report it.
5.16

* * *

Molecular target: Cytochrome P450 2E1 (Homo sapiens, UniProt P05181); further: in other assays of this panel Not Active means under 50% inhibition at 10 µM
Sequence (P05181 whole entry): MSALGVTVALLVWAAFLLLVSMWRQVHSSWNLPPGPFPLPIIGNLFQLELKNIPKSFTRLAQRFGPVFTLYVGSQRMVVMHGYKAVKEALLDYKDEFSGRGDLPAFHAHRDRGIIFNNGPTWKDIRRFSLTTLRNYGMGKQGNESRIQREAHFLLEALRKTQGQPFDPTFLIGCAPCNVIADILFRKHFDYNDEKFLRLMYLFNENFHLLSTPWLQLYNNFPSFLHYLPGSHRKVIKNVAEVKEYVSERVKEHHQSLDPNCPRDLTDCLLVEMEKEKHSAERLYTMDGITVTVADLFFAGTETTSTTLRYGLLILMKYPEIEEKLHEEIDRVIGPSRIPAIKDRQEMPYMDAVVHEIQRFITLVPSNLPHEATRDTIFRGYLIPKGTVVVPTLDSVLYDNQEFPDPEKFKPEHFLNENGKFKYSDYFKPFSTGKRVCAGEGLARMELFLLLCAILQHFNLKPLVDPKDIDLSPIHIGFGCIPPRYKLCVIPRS
Details: bti-tn-5b1-4
observable: IC50

Completed entries (count: 4):
In [3]: df
Out[3]:
                                   molecule      result
0  C[C@](N)(Cc1ccc(O)cc1)C(=O)O [METYROSINE]  Not Active
1    O=c1[nH]cc(F)c(=O)[nH]1 [FLUOROURACIL]  Not Active
2  Nc1ccc(S(=O)(=O)Nc2ccnn2-c2ccccc2)cc1 [SULFAPHENAZOLE]  Not Active
3  CNC(=O)Oc1ccc2c(c1)[C@]1(C)CCN(C)[C@@H]1N2C [PHYSOSTIGMINE]  Not Active

# return recorded IC50 for input CN1CCN2c3ccccc3Cc3ccccc3C2C1 (stereo not given) [MIANSERIN]
Not Active

* * *

Experiment: DRUGMATRIX: Calcium Channel Type L, Benzothiazepine radioligand binding (ligand: [3H] Diltiazem)
Assay type: cell membranes, Rattus norvegicus, Wistar, Brain, Membrane
Conditions: Not Active = under 50% inhibition at 10 µM; read-out: Ki
observable: Ki (nM)
Use nM as the unit, but write only the number.

State, in one line, measured Ki of COC(=O)C1=C(C)NC(C)=C(C(=O)OC)C1c1ccccc1[N+](=O)[O-]
7.71

Consider the compound Fc1ccc([C@@H]2CCNC[C@H]2COc2ccc3c(c2)OCO3)cc1 . State its measured Ki.
331

Determine its reported Ki: CN(C)CCCC1(c2ccc(F)cc2)OCc2cc(C#N)ccc21 (stereo not given)
1590

Specify measured Ki for CNCCC=C1c2ccccc2CCc2ccccc21 .
2490

For the compound COc1ccc([C@@H]2Sc3ccccc3N(CCN(C)C)C(=O)[C@@H]2OC(C)=O)cc1 , give its measured Ki value.
25
